# Test system: MDA-MB-435 melanoma
# ASSAY REMARKS: NCI-60 one-dose screen, 48 h
# STATED CONDITIONS: 10 µM unless noted
The panel holds about 83,000 compounds, 20% with a hit somewhere; the sample as a whole holds those more often. Active and inactive are the calls of the source. How the source made its calls: active means growth percent below 10; inactive means the rest.
Tick one outcome: active, inactive

> print(dat)
                                   compound     class
1  O=C(c1ccc(Br)cc1)C(Br)C(c1ccc(Cl)cc1)C(c1ccccc1)[N+](=O)[O-] (configuration not stated)  inactive

Field: next compound
query: Status in this test for C[C@@H]1NC(=O)[C@H](Cc2ccccc2)N(Cc2cccnc2)C1=O ?
result: inactive

====

# Test system: 786-0 renal
# ASSAY REMARKS: NCI-60 one-dose screen, 48 h
# STATED CONDITIONS: 10 µM unless noted
The panel holds about 83,000 compounds, 20% with a hit somewhere; the sample as a whole holds those more often. Calls of active or inactive are those of the source. Rule for the calls: active = growth percent below 10; inactive = the rest.
Tick one outcome: active, inactive

> print(dat)
                                   compound     class
1  Cc1ccc(Cc2cnc(NC(=O)/C=C/c3ccc(C)o3)s2)cc1  inactive

query: Status in this test for CC1SC(c2ccccc2O)N(NC(=O)CCC(=O)c2nc3ncccc3[nH]2)C1=O (centres undefined) ?
result: inactive

query: Status in this test for COC12C=C/C(=C(/C(=O)OCc3cncnc3)C(=O)CCCCCCCCC3(OC)C=C/C(=C(/C(=O)OCc4cncnc4)C(=O)CCCCCCCC1)O3)O2 ?
result: active

====

Property: growth; scope: individual molecules
# Test system: COLO 205 colon
# ASSAY REMARKS: NCI-60 one-dose screen, 48 h (100 = growth as untreated, 0 = no growth, -100 = all killed)
# STATED CONDITIONS: 10 µM unless noted
# Method: Cells are grown in 96 well plates and exposed to the test compound for 48 hours. Compounds are tested at a single concentration, which is 10^-5 M for most compounds. The reported endpoint is percent growth (GI% or GIPRCNT), where numbers from 0 - 100% represent growth inhibition, and numbers from -100% - 0 represent cell death. For example, a value of 40 represents 60% growth inhibition. A value of 0 means no net growth occurred over the course of the experiment. […]
Compounds without any hit were thinned out: in the full panel of roughly 83,000, 20% have a hit.
Express the result in % but write the number alone.

Record excerpt, results attached:
> print(dat)
                                   molecule  measure.name  recorded.result
1  CN(C)CCCn1c2c(c3ccncc3c1=O)C(=O)c1ccccc1-2        growth             10.6
2  N#Cc1c(-c2ccc(Cl)cc2)nc(NN=Cc2ccc[nH]2)nc1N1CCOCC1        growth             81.6

For reference, reported growth for Nc1[nH]nc2nc(-c3ccccc3)n3c4ccccc4nc3c12 stands at 112

For reference, reported growth for CCOC(=O)c1nnn(-c2no[n+]([O-])c2-c2ccc(OC)cc2)c1COc1cccc2cccnc12 stands at -25

For reference, reported growth for COc1ccc(-c2cc(-c3cc(OC)ccc3OC)nc(SCC(C)=O)c2C#N)cc1 stands at 78.2

For reference, reported growth for O=C1/C(=C/c2cccc(Br)c2)COc2ccc(O)cc21 stands at 84.5

For reference, reported growth for CCOC(=O)CC[C@H](NC(=O)c1ccc(N(C)Cc2cnc3nc(N)nc(N)c3n2)c2ccccc12)C(=O)OCC stands at 36.9

For reference, reported growth for CNCC[C@H](Oc1cccc2ccccc12)c1cccs1 stands at 102

For reference, reported growth for O=C(C1=Cc2cc3ccccc3n2Cc2cnnn21)c1ccc(F)cc1 stands at 117

For reference, reported growth for OC1(c2ccccc2)c2ccccc2N(c2ccccc2)c2ccc(Cl)cc21 (stereo unspecified) stands at -85.7

For reference, reported growth for CCCCCCCCCCOC(=O)c1nn(C(C)=O)c2cc(C)c(C)cc12 stands at 102

For reference, reported growth for c1csc(-c2cn3nc(-c4c[nH]c5ccccc45)sc3n2)c1 stands at 5.46

For reference, reported growth for CCN(CC)CCOc1ccc(C(=O)/C=C\c2ccc(Cl)cc2Cl)cc1 stands at -53.5

For reference, reported growth for COc1ccc(/C=C/C(c2cc(OC)c(OC)c(OC)c2)n2cncn2)cc1O (stereo unspecified) stands at 60.6

For reference, reported growth for COc1ccccc1/C=C/C(=O)Nc1ccc(F)cc1 stands at 101

For reference, reported growth for C=CC(CC(c1ccccc1)(c1ccccc1)c1ccccc1)N(CC)CC (stereo unspecified) stands at 64.5

For reference, reported growth for O=c1cc(C(F)(F)F)c2cc(-c3cc4ccccc4c(=O)o3)c(O)cc2o1 stands at 107

For reference, reported growth for COC(=O)c1c2c(c(C)[n+]([O-])c1C)C(=O)C(NCc1ccccc1)=CC2=O stands at -9.35

For reference, reported growth for O=C1Nc2ccc(Cl)cc2/C1=C/c1ccc[nH]1 stands at 126

For reference, reported growth for CN1CCN(Cc2ccc(NC(=O)c3cncc(C#Cc4cnc(N)cc4C#N)c3)cc2C(F)(F)F)CC1 stands at -31.2

For reference, reported growth for CCOC(=O)/C=C1\S/C(=N\Nc2cc(=O)[nH]c3ccc(Br)cc23)N(c2ccccc2)C1=O stands at 46.6

====

# Test system: BT-549 breast
# ASSAY REMARKS: NCI-60 one-dose screen, 48 h (100 = growth as untreated, 0 = no growth, -100 = all killed)
# STATED CONDITIONS: 10 µM unless noted
This is part of a sample that, as a whole, favours compounds with a hit. Of some 83,000 tested, about 20% had one in any assay.
MEASURE NAME: growth (%)
Express the result in % but write the number alone.

> print(dat)
                                   molecule  recorded.result
1  C=CC(CC(c1ccccc1)(c1ccccc1)c1ccccc1)N(CC)CC (stereo unspecified)             64.4
2  Nc1cccc(-c2ccc(COc3ccc(CC4SC(=O)NC4=O)cc3)cc2)c1 (stereo unspecified)             58.7

Query molecule follows.
For reference, reported growth for COc1ccc(-c2cc(C(=O)N3N=C(c4ccc(N)cc4)CC3c3ccc(Cl)cc3)c3cc(OC)ccc3n2)cc1 (stereo unspecified) stands at 29.8

====

Property: growth; scope: individual molecules
# System: SR leukemia
# ASSAY REMARKS: NCI-60 one-dose screen, 48 h (100 = growth as untreated, 0 = no growth, -100 = all killed)
# STATED CONDITIONS: 10 µM unless noted
This is part of a sample that, as a whole, favours compounds with a hit. Of some 83,000 tested, about 20% had one in any assay. Calls of active or inactive are those of the source. Rule for the calls: active = growth percent below 10; inactive = the rest.

Record excerpt, results attached:
> print(dat)
                                   molecule   recorded.result
1  CCN(CC)CCOc1ccc(C(=O)/C=C\c2ccc(Cl)cc2Cl)cc1   -15.4% (active)
2  Cc1ccc(OCCOCCOCCOc2ccc(C)n(O)c2=S)c(=S)n1O  25.6% (inactive)
3             ClCCn1cnc2c(SCc3ccccc3)ncnc21  43.6% (inactive)

For reference, reported growth for CCOc1ncc([N+](=O)[O-])c(OCC)n1 stands at 93.7% (inactive)

For reference, reported growth for CN(C)Cc1cc(C(C)(C)C)cc(Br)c1O stands at 107% (inactive)

For reference, reported growth for CCOC(=O)C/C(=N\Nc1cc(=O)[nH]c2ccc(OC)cc12)C(=O)OCC stands at 67% (inactive)

====

# Tested on: COLO 205 colon
# ASSAY REMARKS: NCI-60 one-dose screen, 48 h
# STATED CONDITIONS: 10 µM unless noted
The panel holds about 83,000 compounds, 20% with a hit somewhere; the sample as a whole holds those more often. Calls of active or inactive are those of the source. Rule for the calls: active = growth percent below 10; inactive = the rest.
Tick one outcome: active, inactive

Take a look at these entries with their results.
> print(dat)
                                   molecule   class
1  CCCCCc1ccc(S(=O)(=O)Nc2cc(-c3csc(NC(C)=O)n3)ccc2N2CCN(C)CC2)cc1  active
2  COc1ccc(Cl)cc1Nc1nc(C(F)(F)F)ccc1C(=O)N/N=C/c1ccc([N+](=O)[O-])cc1  active

query: Status in this test for CC1(C)CC(=O)C2=C(C1)C(c1ccc(Cl)cc1)n1ncc(C#N)c1N2 (stereo not given) ?
result: inactive

query: Status in this test for Nc1cc(Br)cc2c1[nH]c(=O)c1ccccc12 ?
result: inactive

query: Status in this test for CC(O)CNC(Cc1ccccc1)c1ccc2c(c1)OCO2 (stereo not given) ?
result: inactive

query: Status in this test for COc1cccc(-c2cn3nc(-c4cn(C)c5ccccc45)sc3n2)c1 ?
result: inactive

query: Status in this test for Cn1cc(-c2nc3c(F)cc4[nH]ncc4c3c3c2CCCC3)c(C(F)(F)F)n1 ?
result: inactive

query: Status in this test for C1CCC(N2CN3c4nonc4N4CN(C5CCCCC5)CN5c6nonc6N(C2)C3C45)CC1 (stereo not given) ?
result: inactive
